assay_remarks: Evaluation of brain penetration in mice (blood and brain concentration at brain Cmax)
Format: in vivo, mouse
measurement_parameters: 1 mg/kg single oral dose, C57BL/6J mice, n=3
quantity_kind: Concentration in brain (mean ± SD) at brain Cmax
Field note: include the unit after the figure.

Sample records with Concentration in brain (mean ± SD) at brain Cmax:
- C=C1/C(=C\C=C2/CCC[C@]3(C)[C@@H]([C@@H](C)CN4CCC(O)(C(F)(F)F)CC4)CC[C@@H]23)C[C@@H](O)[C@H](C)[C@@H]1O: 239 ± 23 pmol/g
- C[C@H](CN1CCC(O)(C(F)(F)F)C1)[C@H]1CC[C@H]2/C(=C/C=C3C[C@@H](O)C[C@H](O)C3)CCC[C@]12C (single isomer, unassigned) [Compound B045a]: 185 ± 116 pmol/g

Let us examine a further case.
Lookup: Provide one value: measured Concentration in brain (mean ± SD) at brain Cmax of C[C@H](CCN1CCOCC1)[C@H]1CC[C@H]2/C(=C/C=C3C[C@@H](O)C[C@H](O)C3)CCC[C@]12C
Found: 595 ± 23 pmol/g

====

// reported EC50 per item
measured_target: human VDR (Homo sapiens)
assay_remarks: Evaluation of VDR transcription activity in human osteoblasts (HOS cells), luciferase reporter
measurement_parameters: Activity (EC50, VDR transcription activity), HOS cells transfected with human VDR, human RXRα and DR3 luciferase reporter; 21 hours

Completed entries (count: 3):
• C=C1/C(=C\C=C2/CCC[C@]3(C)[C@@H]([C@H](C)CN4CC(C(C)(F)F)C4)CC[C@@H]23)C[C@@H](O)[C@H](C)[C@@H]1O = 10 to 100 nM
• C=C1/C(=C\C=C2/CCC[C@]3(C)[C@@H]([C@H](C)CN4CC[C@@](C)(O)C4)CC[C@@H]23)C[C@@H](O)C[C@@H]1O = 100 to 1000 nM
• C=C1/C(=C\C=C2/CCC[C@]3(C)[C@@H]([C@H](C)CCN4CCO[C@H](C(F)F)C4)CC[C@@H]23)C[C@@H](O)C[C@@H]1O = 10 to 100 nM

Lookup: Let me know recorded EC50 for C=C1/C(=C\C=C2/CCC[C@]3(C)[C@@H]([C@@H](C)CN4CCCC(O)(C(F)(F)F)C4)CC[C@@H]23)C[C@@H](O)C[C@@H]1O (single isomer, unassigned) [Compound C033a] , thanks.
Found: < 1 nM

Lookup: State its EC50 for this compound: C=C1/C(=C\C=C2/CCC[C@]3(C)[C@@H]([C@H](C)CN4CC[C@](C)(O)C4)CC[C@@H]23)C[C@@H](O)C[C@@H]1O
Found: 10 to 100 nM

====

measured_target: UniProtKB P11473
assay_remarks: Evaluation of VDR transcription activity in human osteoblasts (HOS cells), luciferase reporter
measurement_parameters: Activity (EC50, VDR transcription activity), HOS cells transfected with human VDR, human RXRα and DR3 luciferase reporter; 21 hours
quantity_kind: EC50

* C[C@H](CCN1CCO[C@H](C(F)F)C1)[C@H]1CC[C@H]2/C(=C/C=C3C[C@@H](O)C[C@H](O)C3)CCC[C@]12C [Compound D034] | 10 to 100 nM
* C=C1/C(=C\C=C2/CCC[C@]3(C)[C@@H]([C@@H](C)CN4CCCC4)CC[C@@H]23)C[C@@H](O)C[C@@H]1O [Compound B009] | 100 to 1000 nM
* C[C@H](CN1CC[C@H](CCC(F)F)C1)[C@H]1CC[C@H]2/C(=C/C=C3C[C@@H](O)C[C@H](O)C3)CCC[C@]12C [Compound B063] | 10 to 100 nM
* C=C1[C@H](O)CC(=C/C=C2\CCC[C@]3(C)[C@@H]([C@H](C)CN4CCC(C(C)(F)F)CC4)CC[C@@H]23)C[C@H]1O [Compound C055] | 10 to 100 nM
* COC1(C)CCCN(C[C@@H](C)[C@H]2CC[C@H]3/C(=C/C=C4C[C@@H](O)C[C@H](O)C4)CCC[C@]23C)C1 (single isomer, unassigned) [Compound C045a] | 10 to 100 nM

Lookup: Give EC50 for the following compound: C=C1/C(=C\C=C2/CCC[C@]3(C)[C@@H]([C@@H](C)CN4CC[C@@H](C(F)F)C4)CC[C@@H]23)C[C@@H](O)C[C@@H]1O [Compound B096]
Found: 1 to 10 nM

Lookup: Please report the measured EC50 for C=C1/C(=C\C=C2/CCC[C@]3(C)[C@@H]([C@H](C)CN4CCC(O)(C(F)(F)F)C4)CC[C@@H]23)C[C@@H](O)C[C@@H]1O (single isomer, unassigned) [Compound B044a]
Found: < 1 nM

Lookup: Quick one: give measured EC50 for C=C1[C@H](O)CC(=C/C=C2\CCC[C@]3(C)[C@@H]([C@@H](C)CN4CCC(O)(C(F)F)CC4)CC[C@@H]23)C[C@H]1O [Compound C026]
Found: 1 to 10 nM

Lookup: Kindly indicate its recorded EC50. Item: C[C@H](CCN1CC[C@@H](OC(F)F)C1)[C@H]1CC[C@H]2/C(=C/C=C3C[C@@H](O)C[C@H](O)C3)CCC[C@]12C [Compound B087]
Found: 100 to 1000 nM

Lookup: Provide measured EC50 value, entry: C=C1[C@H](O)CC(=C/C=C2\CCC[C@]3(C)[C@@H]([C@H](C)CN4CCOC5(CCCC5)C4)CC[C@@H]23)C[C@H]1O [Compound D012]
Found: 1 to 10 nM

Lookup: # return recorded EC50 for input C=C1[C@H](O)CC(=C/C=C2\CCC[C@]3(C)[C@@H]([C@H](C)CN4CC[C@H](C(F)F)C4)CC[C@@H]23)C[C@H]1O [Compound B023]
Found: 1 to 10 nM

====

measured_target: human VDR (Homo sapiens, UniProt P11473)
assay_remarks: Evaluation of VDR transcription activity in human osteoblasts (HOS cells), luciferase reporter
measurement_parameters: Activity (EC50, VDR transcription activity), HOS cells transfected with human VDR, human RXRα and DR3 luciferase reporter; 21 hours
Listed here are molecules together with their documented EC50.

Lookup: Answer briefly: EC50 recorded on human VDR (Homo sapiens, UniProt P11473) for C[C@H](CCN1CCOC2(CC2)C1)[C@H]1CC[C@H]2/C(=C/C=C3C[C@@H](O)C[C@H](O)C3)CCC[C@]12C
Found: 1 to 10 nM

Lookup: GET EC50 | system: human VDR (Homo sapiens, UniProt P11473) | item: C=C1[C@H](O)CC(=C/C=C2\CCC[C@]3(C)[C@@H]([C@H](C)CN4CCC(O)(C(F)(F)F)C4)CC[C@@H]23)C[C@H]1O (single isomer, unassigned) [Compound B046a]
Found: < 1 nM

Lookup: Look up and report measured EC50 (human VDR (Homo sapiens, UniProt P11473)) for the following molecule: C=C1[C@H](O)CC(=C/C=C2\CCC[C@]3(C)[C@@H]([C@H](C)CN4CCO[C@@H](C(F)F)C4)CC[C@@H]23)C[C@H]1O
Found: 1 to 10 nM

====

Measured pEC50, listed per entry.
measured_target: UniProt P11473
assay_remarks: Evaluation of VDR transcription activity in human osteoblasts (HOS cells), luciferase reporter
measurement_parameters: Activity (EC50, VDR transcription activity), HOS cells transfected with human VDR, human RXRα and DR3 luciferase reporter; 21 hours
pEC50: −log10 of the molar value.

Reference set, count: 2
- C=C1/C(=C\C=C2/CCC[C@]3(C)[C@@H]([C@H](C)CN4CC[C@H](C(C)(F)F)C4)CC[C@@H]23)C[C@@H](O)[C@H](C)[C@@H]1O: 8.00 to 9.00
- C=C1[C@H](O)CC(=C/C=C2\CCC[C@]3(C)[C@@H]([C@H](C)CN4CC[C@H](CCC(F)F)C4)CC[C@@H]23)C[C@H]1O: 8.00 to 9.00

Lookup: Supply pEC50 value. Item: C[C@H](CCN1CC(OC(F)(F)F)C1)[C@H]1CC[C@H]2/C(=C/C=C3C[C@@H](O)C[C@H](O)C3)CCC[C@]12C
Found: 6.00 to 7.00

====

measured_target: human VDR (Homo sapiens, UniProt P11473)
Sequence (P11473 1-427): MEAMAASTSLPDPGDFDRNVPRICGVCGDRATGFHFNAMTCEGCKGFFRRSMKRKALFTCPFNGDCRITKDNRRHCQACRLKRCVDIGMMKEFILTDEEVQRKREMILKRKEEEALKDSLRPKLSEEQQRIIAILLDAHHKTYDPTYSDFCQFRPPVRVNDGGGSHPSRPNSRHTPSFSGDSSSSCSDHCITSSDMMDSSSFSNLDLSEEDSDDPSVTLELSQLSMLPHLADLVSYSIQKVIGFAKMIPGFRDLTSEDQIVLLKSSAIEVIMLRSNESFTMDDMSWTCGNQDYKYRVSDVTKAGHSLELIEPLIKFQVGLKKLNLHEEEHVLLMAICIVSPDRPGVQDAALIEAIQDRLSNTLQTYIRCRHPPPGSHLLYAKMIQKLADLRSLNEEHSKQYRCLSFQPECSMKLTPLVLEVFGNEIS
Sequence (P19793 1-462 partner): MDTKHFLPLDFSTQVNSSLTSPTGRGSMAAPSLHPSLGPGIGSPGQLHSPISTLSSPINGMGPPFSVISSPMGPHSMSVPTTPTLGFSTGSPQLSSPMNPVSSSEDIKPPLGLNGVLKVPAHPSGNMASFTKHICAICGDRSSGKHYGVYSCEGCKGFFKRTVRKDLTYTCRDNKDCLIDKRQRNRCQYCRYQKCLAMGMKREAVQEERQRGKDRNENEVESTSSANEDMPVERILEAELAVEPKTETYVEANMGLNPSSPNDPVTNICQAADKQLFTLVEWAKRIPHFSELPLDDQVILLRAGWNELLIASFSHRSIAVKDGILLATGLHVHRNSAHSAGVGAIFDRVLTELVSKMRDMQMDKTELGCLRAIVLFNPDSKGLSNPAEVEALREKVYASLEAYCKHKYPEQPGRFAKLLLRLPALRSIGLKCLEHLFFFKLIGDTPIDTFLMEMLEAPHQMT
assay_remarks: Evaluation of VDR transcription activity in human osteoblasts (HOS cells), luciferase reporter
measurement_parameters: Activity (EC50, VDR transcription activity), HOS cells transfected with human VDR, human RXRα and DR3 luciferase reporter; 21 hours
pEC50: −log10 of the molar value.
quantity_kind: pEC50

Lookup: Fill in reported pEC50 for this entry: C=C1[C@H](O)CC(=C/C=C2\CCC[C@]3(C)[C@@H]([C@H](C)CN4CCCC(C)(OC)C4)CC[C@@H]23)C[C@H]1O (single isomer, unassigned) [Compound C047b]
Found: 7.00 to 8.00

Lookup: Please report the measured pEC50 for C[C@H](CN1CC[C@@H](CC(F)F)C1)[C@H]1CC[C@H]2/C(=C/C=C3C[C@@H](O)C[C@H](O)C3)CCC[C@]12C [Compound B043]
Found: 7.00 to 8.00

Lookup: Supply pEC50 value. Item: C=C1[C@H](O)CC(=C/C=C2\CCC[C@]3(C)[C@@H]([C@H](C)CN4CCCC(O)(CC)C4)CC[C@@H]23)C[C@H]1O (single isomer, unassigned) [Compound C046a]
Found: > 9.00
